Where do the numbers come from? From patent US20210253718A1.

- target system: T1, FZD1 CRD (Homo sapiens, UniProt Q9UP38)
- T1 construct: D112-P238; GPI anchor signal (C); expressed in transfected cells; host or cells: CHO cells, lentiviral pLenti-puro
- assay explanation: Flow cytometry of anti-FZD5 Fab binding to CHO cells overexpressing Frizzled CRD
readout label: Median fluorescence, Frizzled CRD overexpressed on CHO cells: FZD1

[[record]]
molecule = "Fab-2905: anti-FZD5 Fab with antibody variable region Fv-2905; CDR SEQ ID NOs: 35, 36, 44, 83, 120, 157 (antibody, V domains shown) VH: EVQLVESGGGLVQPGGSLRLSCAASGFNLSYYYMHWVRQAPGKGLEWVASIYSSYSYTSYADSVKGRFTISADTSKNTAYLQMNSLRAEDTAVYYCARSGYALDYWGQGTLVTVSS VL: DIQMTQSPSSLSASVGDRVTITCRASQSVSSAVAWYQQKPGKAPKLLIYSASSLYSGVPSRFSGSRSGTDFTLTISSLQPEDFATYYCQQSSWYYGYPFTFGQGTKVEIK"
observed = 3.75

